Values compiled from patent US10793543B2.

Could you please report measured GI50 for the items listed next?
- Test system: Tel-cKit/V654A-BaF3 cells (KIT V654A)
- Assay name: Cell proliferation, CCK-8, Tel-cKit/V654A-BaF3
- Format: cell-based
- Measurement parameters: Mus musculus, 72 hours
Give bare numbers, in nM.

Answered examples (5):
# lookup: Cc1ccc(NC(=O)c2ccc(CN3CCN(C)CC3)c(C(F)(F)F)c2)cc1OC1CCN(C(=O)c2ccncc2)CC1 on Tel-cKit/V654A-BaF3 cells (KIT V654A), GI50 = 585

# lookup: C=CC(=O)N1CCC(Oc2cc(NC(=O)c3ccc(CN4CCN(C)CC4)c(C(F)(F)F)c3)ccc2C)CC1 on Tel-cKit/V654A-BaF3 cells (KIT V654A), GI50 = 401

# lookup: Cc1cn(-c2cc(NC(=O)c3ccc(C)c(Nc4nccc(-c5cccnc5)n4)c3)cc(C(F)(F)F)c2)cn1 on Tel-cKit/V654A-BaF3 cells (KIT V654A), GI50 = 365

# lookup: Cc1ccc(NC(=O)c2cccc(C(F)(F)F)c2)cc1OC1CCN(C(=O)c2ccncc2)CC1 on Tel-cKit/V654A-BaF3 cells (KIT V654A), GI50 = 1030

# lookup: Cc1ccc(NC(=O)c2ccc(CN3CCN(C)CC3)c(C(F)(F)F)c2)cc1OC1CCN(C(=O)c2cccnc2)CC1 on Tel-cKit/V654A-BaF3 cells (KIT V654A), GI50 = 2260

Moving on to the next compound.
# lookup: Cc1ccc(NC(=O)c2ccc(CN3CCN(C)CC3)cc2)cc1Nc1nccc(-c2cccnc2)n1 on Tel-cKit/V654A-BaF3 cells (KIT V654A), GI50 = 2490
